Data provenance: patent US20060258561A1

Biological target: R-state His^B10 Zn^2+ site of insulin R6 hexamers (Homo sapiens, UniProt P01308)
Construct: human insulin comprising additional amino acids, i.e. more than 51 amino acids
Sequence (P01308 25-54 limits assumed): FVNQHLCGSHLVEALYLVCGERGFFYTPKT
Sequence (P01308 90-110 limits assumed): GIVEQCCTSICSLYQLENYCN
Assay: TZD-assay: fluorescence displacement of 5-(4-dimethylaminobenzylidene)thiazolidine-2,4-dione from insulin R6 hexamers
Format: binding
Conditions: measured separately; read-out: KTZD
Protocol: However, ligands with substantially higher affinity for the His^B10 Zn^2+-site may be found and characterized by using a fluorescence based competition assay which is based on the displacement of 5-(4-dimethylaminobenzylidene)-thiazolidine-2,4-dione from the R-state His^B10 Zn^2+-site by the incoming ligand in question. TZD-Assay for Quantitation of Ligands Binding to the R-State His^B10 Zn^2+: […] Fluorescence measurements were carried out on a Perkin Elmer Spectrofluorometer LS50B. […]
readout kind: pKd
Please express pKd as -log10 of the molar concentration.

Indicate its recorded pKd; the molecule in question is CN(C)c1ccc(C=C2SC(O)=NC2=O)cc1 [TZD, reference compound]
6.64

----------
Consider the following compounds and their measured pKd readings.
target: R-state His^B10 Zn^2+ site of insulin R6 hexamers (Homo sapiens, UniProt P01308); construct: human insulin comprising additional amino acids, i.e. more than 51 amino acids; assay: TZD-assay: fluorescence displacement of 5-(4-dimethylaminobenzylidene)thiazolidine-2,4-dione from insulin R6 hexamers; assay type: binding; conditions: human insulin R6 hexamers, 40 mM phenol, tris pH 8.0; apparent KD, fit with Fmax fixed; read-out: Kd as observed in the 5-(4-imethylaminobenzylidene)-thiazolidine-2,4-dione assay
Please express pKd as -log10 of the molar concentration.

Consider the worked cases shown below.
compound	observed measurement
O=C(O)COc1ccc(/C=C2\SC(=O)NC2=O)c2ccccc12	7.96
c1ccc(-c2ccc(Cn3ccc4cc(-c5nnn[nH]5)ccc43)cc2)cc1	7.42
c1ccc(Cn2c3ccccc3c3cc(-c4nnn[nH]4)ccc32)cc1	7.17
O=C1NC(=O)C(Cc2cccc3ccccc23)S1 (stereo not drawn)	7.00
O=C(O)c1ccc(Cn2c3ccccc3c3cc(-c4nnn[nH]4)ccc32)cc1	6.76
O=C1NC(=O)/C(=C/c2cccc3ccccc23)S1	7.68

Kindly review the next compound as well.
Indicate its recorded pKd; the compound in question is O=C(O)c1cc2cc(Br)ccc2cc1O [7-Bromo-3-hydroxy-2-napthoic acid]
6.58
